Data provenance is ChEMBL document CHEMBL4257485.

Known IC50 of a selection of compounds
test system: MCF7; test: Cytotoxicity against human MCF7 cells after 48 hrs by LDH release assay; assay type: functional, cell-based; conditions: MCF7, 48 h
Just the number in µM, nothing appended.

Examples from the recorded data:
O=C(COc1c(F)cc(C(=O)c2ccc(F)cc2)cc1Cl)NNC(=O)c1ccc(=O)oc1
61.1
Cn1cnc(C(=O)NNC(=O)COc2c(F)cc(C(=O)c3ccc(F)cc3)cc2Cl)c1
44.6

Entry Cc1ccc(C(=O)c2cc(F)c(OCC(=O)NNC(=O)c3cn(C)cn3)c(Cl)c2)cc1 — recorded IC50 = 9.4

Entry Cc1ccc(C(=O)c2cc(F)c(OCC(=O)NNC(=O)c3ccc(=O)oc3)c(Cl)c2)cc1 — recorded IC50 = 24.2

Entry Cn1cnc(C(=O)NNC(=O)COc2c(F)cc(C(=O)c3ccc(Cl)cc3)cc2Cl)c1 — recorded IC50 = 44.4

Entry O=C(COc1ccc(C(=O)c2ccccc2)cc1)NNC(=O)c1ccc(=O)oc1 — recorded IC50 = 61.1

Entry O=C(COc1c(F)cc(C(=O)c2ccc(Cl)cc2)cc1Cl)NNC(=O)c1ccc(=O)oc1 — recorded IC50 = 83.8

Entry Cn1cnc(C(=O)NNC(=O)COc2ccc(C(=O)c3ccccc3)cc2)c1 — recorded IC50 = 31.6
